- System: OVCAR-3 ovarian
- Experiment description: NCI-60 one-dose screen, 48 h (100 = growth as untreated, 0 = no growth, -100 = all killed)
- Condition details: 10 µM unless noted
This is part of a sample that, as a whole, favours compounds with a hit. Of some 83,000 tested, about 20% had one in any assay.

{"columns": ["Molecule", "growth / %"],
 "data": [
  ["N#Cc1c(-c2ccc(F)cc2)nc(N=Nc2c(O)[nH]c3ccccc23)nc1N1CCOCC1", 72.9],
  ["O=c1nc(-c2ccccc2)c2cc(-c3ccc(N4CCCC4)nc3)ccc2[nH]1", 44.7],
  ["O=C(Nc1cc(=O)[nH]c(=O)[nH]1)C(Cl)Cl", 113],
  ["COc1cccc(NC(=O)Nc2ccc(Oc3ncnc4[nH]c(C)c(C)c34)cc2)c1", 103],
  ["O=c1[nH]nc(-c2ccc(Br)cc2)c2sc(NC(=S)Nc3ccc(Cl)cc3)nc12", 104],
  ["COc1cc(C2=NN(c3ccccc3)C(c3cccc(Nc4ccnc5cc(C(F)(F)F)ccc45)c3)C2)cc(OC)c1OC (stereo not given)", 88.1],
  ["COc1ccc(NC(=O)Nc2ccc(Nc3nc(C)cc(Nc4ccc(C)cc4)n3)cc2)cc1", -95.5],
  ["COc1ccc(NC(=O)c2sc3nc(C)c(C(C)=O)cc3c2N)cc1", 109],
  ["O=C(O)CCNC1CCCCC1", 108],
  ["Cc1ccc(C2=N[C@H]3CCC[C@@H]3N(c3ccccc3)C(C(Cl)Cl)=N2)cc1", 103]
]}

---

Below, each entry is listed with its recorded growth.
- System: SNB-19 CNS
- Experiment description: NCI-60 one-dose screen, 48 h (100 = growth as untreated, 0 = no growth, -100 = all killed)
- Condition details: 10 µM unless noted
- Description: Growth inhibition of the SNB-19 human tumor cell line is measured as a screen for anti-cancer activity. Cells are grown in 96 well plates and exposed to the test compound for 48 hours. Compounds are tested at a single concentration, which is 10^-5 M for most compounds. The reported endpoint is percent growth (GI% or GIPRCNT), where numbers from 0 - 100% represent growth inhibition, and numbers from -100% - 0 represent cell death. For example, a value of 40 represents 60% growth inhibition. […]
The panel holds about 83,000 compounds, 20% with a hit somewhere; the sample as a whole holds those more often. The source made the active and inactive calls. Rule for the calls: active = growth percent below 10; inactive = the rest.

{"columns": ["Molecule", "growth"],
 "data": [
  ["CC1=C/C(=N\\N=C2/C=C(C)CC(C)(C)C2)CC(C)(C)C1", "102% (inactive)"],
  ["O=C(CCl)N1CCCc2ccccc21", "100% (inactive)"],
  ["CCCCn1c(=O)c(/C=C/C(=O)/C=C/c2cc3ccccc3n(CCCC)c2=O)cc2ccccc21", "16.2% (inactive)"],
  ["C=CCn1c(CN2CCN(c3cc4c(cc3F)c(=O)c(C(=O)O)cn4C3CC3)CC2)n[nH]c1=S", "107% (inactive)"],
  ["Cc1cc(C)cc(Nc2nccc(-c3c(-c4ccc(F)cc4)ncn3C3CCNCC3)n2)c1", "27.5% (inactive)"],
  ["CCOC(=O)c1c(C)nc2c(c1N)/C(=C/c1ccccn1)C(=O)N2Cc1ccccc1", "0.719% (active)"],
  ["O=CN1N=C(c2ccc(F)cc2)CC1c1cccc(Nc2ccnc3cc(C(F)(F)F)ccc23)c1 (stereo not given)", "63.9% (inactive)"],
  ["O=C1C(=O)c2c(nc3ccc(C(F)(F)F)cn23)-c2ccccc21", "-84.4% (active)"],
  ["CCOC(=O)c1c(C)nc2c(c1N)/C(=C/c1cccs1)C(=O)N2c1ccc(OC)cc1", "42.2% (inactive)"],
  ["CN(C)c1ccc(-c2ccc3[nH]c(=O)nc(-c4ccc(F)cc4)c3c2)cn1", "36.2% (inactive)"]
]}

---

- Tested on: A498 renal
- Experiment description: NCI-60 one-dose screen, 48 h (100 = growth as untreated, 0 = no growth, -100 = all killed)
- Condition details: 10 µM unless noted
The panel holds about 83,000 compounds, 20% with a hit somewhere; the sample as a whole holds those more often.
growth listing for selected compounds.

{"columns": ["Compound", "Uom", "growth"],
 "data": [
  ["O=C(CCc1nnco1)c1nc2ccc([N+](=O)[O-])cc2[nH]1", "%", 126],
  ["COc1ccc(C(=O)c2cc(OC)c(OC)c(OC)c2)cc1OC(=O)CCl", "%", 59.3],
  ["COc1ccc(C2C(c3ccccc3)C(=O)N2c2cc(OC)c(OC)c(OC)c2)cc1I (stereo not given)", "%", -2.63],
  ["COc1ccc2nc(-c3ccc(OC)c(OC)c3)cc(-c3nnc(SCC(=O)Nc4ccc(C(C)=O)cc4)o3)c2c1", "%", 93.6],
  ["COC(=O)c1cc2c3c(cc(O)c2[nH]1)N(C(=O)C1Cc2cc(OC)c(OC)c(OC)c2N1)CC3CCl (stereo not given)", "%", -42.8],
  ["NS(=O)(=O)c1ccc(C2C3=C(CCCC3=O)OC3=C2C(=O)c2ccccc2C3=O)cc1 (stereo not given)", "%", -68.9],
  ["CNc1cccc2c1C(=O)c1cccc(N)c1C2=O", "%", 65],
  ["Cc1cccc(C)c1NCc1nnc(-c2ccco2)o1", "%", 96.5],
  ["O=C1CCC23OC(c4ccccc4N12)C(O)C(O)C3O (stereo not given)", "%", 104],
  ["CN(C)CCCn1c2c(c3cc(-c4ccco4)ccc3c1=O)C(=O)c1ccccc1-2", "%", 93.7],
  ["C=C1C(=O)O[C@H]2[C@H]1CC/C(COC(=O)Nc1nc3ccccc3[nH]1)=C\\CC[C@@]1(C)O[C@@H]21", "%", 102],
  ["N#Cc1nc(-c2ccccc2)oc1S(=O)(=O)NCC(c1ccc(Cl)cc1)N1CCCCC1 (stereo not given)", "%", 102],
  ["COCCc1n(Cc2ccc3ccccc3c2)c2ccccc2[n+]1Cc1ccc2ccccc2c1", "%", -19.1],
  ["C=C(C)[C@@H]1CC[C@]2(C(N)=O)CC[C@]3(C)[C@H](CC[C@@H]4[C@@]5(C)CCCNC(C)(C)[C@@H]5CC[C@]43C)[C@@H]12", "%", 99],
  ["N#Cc1c(NC(=O)c2cccs2)[n+]([O-])c2cc(C(F)(F)F)ccc2[n+]1[O-]", "%", 123],
  ["O=C(NCc1ccccc1)c1ccc2c(c1)NC(=O)[C@@H]1CCCN21", "%", 70.3],
  ["C#C[C@@]1(O)[C@@H](CO)O[C@@H](n2cc(Cl)c3c(N)ccnc32)[C@@H]1O", "%", 87.7],
  ["Nc1ccccc1NS(=O)(=O)c1ccc(Cl)cc1", "%", 81.5],
  ["CN1CCN(C(=O)[C@@]2(C)CC[C@]3(C)CC[C@]4(C)C(=CC[C@@H]5[C@@]6(C)CC[C@H](OC(=O)c7cccnc7)C(C)(C)[C@@H]6CC[C@]54C)[C@@H]3C2)CC1", "%", 92.1],
  ["Fc1ccc(N/N=C/c2ccc(-n3cccn3)cc2)cc1", "%", 119],
  ["CCOC(=O)c1c(C)nc2c(c1N)CC(=O)N2CCc1ccccc1", "%", 11.9],
  ["Nc1c(C(=O)Nc2ccccn2)sc2nc3c(cc12)CCCC3", "%", 48.3],
  ["CN1C(=O)c2cc(Cl)nc3c(NC(=O)c4cccc(Cl)c4)c(Cl)c(NC(=O)c4cccc(Cl)c4)c1c23", "%", 96.6],
  ["CSc1nc(-c2ccc(F)cc2)c(C#N)c(N2CCOCC2)n1", "%", 74.4],
  ["CCN1CCC[C@H]1c1cc(O)c2c(c1OC)C[C@H]1C[C@H]3[C@H](N)C(=O)C(C(N)=O)=C(O)[C@@]3(O)C(=O)C1=C2O", "%", -14.7],
  ["O=c1[nH]nc(-c2ccccc2)c2sc(NC(=S)Nc3ccc(Cl)cc3)nc12", "%", 86],
  ["CC1(C)Cc2c(Br)c(Br)c(Br)c(OCC(O)CN3CCOCC3)c2O1 (stereo not given)", "%", 84.3],
  ["NC(=O)c1ccc2nc3c(n2c1)C(=O)C(=O)c1ccccc1-3", "%", -58.6],
  ["CCOC(=O)NC(Cc1ccccc1)c1ccccc1 (stereo not given)", "%", 94],
  ["Cc1c(Br)cccc1NC(=O)c1sc2nc3c(cc2c1N)CN(Cc1ccccc1)CC3", "%", -8.85],
  ["CCc1c(C(=O)N[C@@H](C(=O)OCc2ccccc2)C(C)O)[nH]c2ccc(Cl)cc12 (stereo not given in full)", "%", 67.7],
  ["CCOCc1nc2ccccc2c(=O)[nH]1", "%", 105],
  ["COc1cc(NCC(=O)Nc2cc(Nc3ccc(C)cc3)ncn2)c(Cl)c(OC)c1Cl", "%", 84.9],
  ["O=c1[nH]c2ccccc2cc1-c1nc2ccncc2[nH]1", "%", 88.7],
  ["O=C(CN1N=C(c2ccc(F)cc2)CCC1=O)Nc1nc2ccccc2s1", "%", 97.8],
  ["O=C(NC[C@H](O)CN1CCc2ccccc2C1)c1cc(NC2COC2)ncn1", "%", 116],
  ["O=C1Nc2ccc(Cl)cc2/C1=N/c1nc(-c2ccc(Cl)cc2)cs1", "%", -2.57],
  ["Cc1ccn2c3c(c(C(=O)O)c2c1)C(=O)c1ccccc1C3=O", "%", 89.2],
  ["NC(=O)C(O)(c1ccccc1)c1ccccc1", "%", 84.9],
  ["CC(C)C1=C[C@@]23CC[C@H]4[C@](C)(COCCC#N)CCC[C@]4(C)[C@H]2C[C@@H]1[C@@H]1[C@H]3[C@@H](OCCC#N)CC[C@@H]1OCCC#N", "%", 67.7]
]}
